All figures here come from ChEMBL document CHEMBL3763071.

Biological target: Estrogen receptor (Homo sapiens, UniProt P03372)
Sequence (P03372 whole entry): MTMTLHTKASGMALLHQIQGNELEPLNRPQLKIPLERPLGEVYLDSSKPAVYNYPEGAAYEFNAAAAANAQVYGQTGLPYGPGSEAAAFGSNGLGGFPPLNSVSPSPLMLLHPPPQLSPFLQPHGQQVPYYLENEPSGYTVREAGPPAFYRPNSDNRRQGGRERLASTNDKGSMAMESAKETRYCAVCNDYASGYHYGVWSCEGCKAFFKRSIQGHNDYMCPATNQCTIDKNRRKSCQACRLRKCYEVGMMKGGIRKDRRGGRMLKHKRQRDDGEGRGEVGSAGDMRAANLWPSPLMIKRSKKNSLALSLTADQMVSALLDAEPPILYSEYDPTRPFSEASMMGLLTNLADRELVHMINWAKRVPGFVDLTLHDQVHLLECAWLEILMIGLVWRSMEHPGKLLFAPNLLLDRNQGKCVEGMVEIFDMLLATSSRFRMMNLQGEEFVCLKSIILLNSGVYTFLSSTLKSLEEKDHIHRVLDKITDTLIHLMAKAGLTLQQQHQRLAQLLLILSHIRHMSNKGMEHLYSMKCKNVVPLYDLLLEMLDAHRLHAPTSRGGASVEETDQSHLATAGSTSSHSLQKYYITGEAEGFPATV
Experiment: Agonist activity at estrogen receptor alpha in human MCF7:WS8 cells after 18 hrs by dual luciferase reporter assay
Type: cell-based
Settings: read-out: EC50
# true = EC50 below 80 nM (exclusive); false = EC50 at/above 80 nM

For orientation, consider the following solved cases.
[[record]]
structure_notation = "Cc1ccc(C(=O)c2c(-c3ccc(O)cc3)sc3cc(O)ccc23)cc1"
tgt = "Estrogen receptor (Homo sapiens, UniProt P03372)"
label_value = "true"

[[record]]
structure_notation = "Oc1ccc2c(-c3ccc(F)cc3)c(Oc3ccc(F)cc3)sc2c1"
tgt = "Estrogen receptor (Homo sapiens, UniProt P03372)"
label_value = "true"

[[record]]
structure_notation = "O=C(c1ccc(F)cc1)c1sc2cc(O)ccc2c1-c1ccc(F)cc1"
tgt = "Estrogen receptor (Homo sapiens, UniProt P03372)"
label_value = "true"

[[record]]
structure_notation = "CS(=O)(=O)c1ccc(C(=O)c2sc3cc(O)ccc3c2-c2ccc(F)cc2)cc1"
tgt = "Estrogen receptor (Homo sapiens, UniProt P03372)"
label_value = "false"


Please state whether EC50 is below 80 nM for `Cc1ccc(C(=O)c2sc3cc(O)ccc3c2-c2ccc(F)cc2)cc1`
false

Please state whether EC50 is below 80 nM for `Oc1ccc2c(-c3ccc(F)cc3)c(Oc3ccc(F)c(F)c3)sc2c1`
true

Please state whether EC50 is below 80 nM for `Oc1ccc2c(-c3ccc(F)cc3)c(Oc3ccc(Cl)cc3)sc2c1`
true

Please state whether EC50 is below 80 nM for `C#Cc1ccc(C(=O)c2sc3cc(O)ccc3c2-c2ccc(F)cc2)cc1`
true

----------
Assay: Cytotoxicity against human MCF7:WS8 cells at 0.1 to 1 uM after 3 days by MTT assay
Type: cell-based
Details: mcf7:ws8, 72 h
property-label: Activity

Solved cases (5 shown):
[[record]]
structure_notation = "Oc1ccc2c(-c3ccc(F)cc3)c(Oc3ccc(Cl)cc3)sc2c1"
observed_measurement = "Non-toxic"

[[record]]
structure_notation = "Oc1ccc(Oc2c(-c3ccc(F)cc3)sc3cc(O)ccc23)cc1"
observed_measurement = "Non-toxic"

[[record]]
structure_notation = "Oc1ccc2c(-c3ccc(F)cc3)c(Oc3ccc(F)c(F)c3)sc2c1"
observed_measurement = "Non-toxic"

[[record]]
structure_notation = "O=C(c1ccc(C(F)(F)F)cc1)c1c(-c2ccc(F)cc2)sc2cc(O)ccc12"
observed_measurement = "Non-toxic"

[[record]]
structure_notation = "Cc1ccc(C(=O)c2c(-c3ccc(O)cc3)sc3cc(O)ccc23)cc1"
observed_measurement = "Non-toxic"


# return recorded Activity for input `Cc1ccc(C(=O)c2sc3cc(O)ccc3c2-c2ccc(F)cc2)cc1`
Non-toxic
